Assay: physchem
Could you label it class 1 if measured pKa is 9 or higher, and class 0 otherwise?

Record excerpt, results attached:
| Molecule | Answer Label |
| --- | --- |
| Cc1cccc(C)c1NC(=O)C1CCCCN1C (configuration not stated) [MEPIVACAINE] | class 0 |
| CCCCN [BUTYLAMINE] | class 1 |
| CN1CCC[C@H]1c1cccnc1 [NICOTINE] | class 0 |
| CCCNC(C)C(=O)Nc1ccccc1C (configuration not stated) [PRILOCAINE] | class 0 |
| CC(C)NCC(O)COc1cccc2[nH]c3ccccc3c12 (configuration not stated) [CARAZOLOL] | class 1 |

# input Quick check: does CC(C)(C)NC[C@H](O)COc1ccccc1C1CCCC1 [PENBUTOLOL] have pKa greater than or equal to 9?
# output class 1

# input Quick check: does COc1ccccc1OCCNCC(O)COc1cccc2[nH]c3ccccc3c12 (configuration not stated) [CARVEDILOL] have pKa greater than or equal to 9?
# output class 0

# input Quick check: does CC(C)(C)NC[C@H](O)COc1nsnc1N1CCOCC1 [TIMOLOL] have pKa greater than or equal to 9?
# output class 1

# input Quick check: does NCCO [MONOETHANOLAMINE] have pKa greater than or equal to 9?
# output class 0

# input Quick check: does CC(=O)Oc1cc(C(C)C)c(OCCN(C)C)cc1C [MOXISYLYTE] have pKa greater than or equal to 9?
# output class 0

# input Quick check: does C=CCOc1ccccc1OCC(O)CNC(C)C (configuration not stated) [OXPRENOLOL] have pKa greater than or equal to 9?
# output class 1

# input Quick check: does CC(=O)Oc1c(C)cc(OCC(O)CNC(C)C)c(C)c1C (configuration not stated) [METIPRANOLOL] have pKa greater than or equal to 9?
# output class 1

----------
Conditions: buffer, pH 2
Sorting guide: entries reporting log K beneath 1 go in the met pile, the rest go in the not met pile.

# input # check: log K < 1 for CC(C)NCC(O)COc1cccc2[nH]ccc12 (stereo not given) [PINDOLOL]
# output not met

# input # check: log K < 1 for COc1ccccc1OCCNCC(O)COc1cccc2[nH]c3ccccc3c12 (stereo not given) [CARVEDILOL]
# output not met

# input # check: log K < 1 for CC(C)NCC(O)COc1ccc(COCCOC(C)C)cc1 (stereo not given) [BISOPROLOL]
# output not met

# input # check: log K < 1 for CC(C)NCC(O)COc1cccc2ccccc12 (stereo not given) [PROPRANOLOL]
# output not met

# input # check: log K < 1 for CC([C@H](O)c1ccccc1)N(C)C (stereo not given in full) [METHYLEPHEDRINE]
# output met

----------
Details: octanol/water
Sorting guide: entries reporting logPc beneath 0.8 go in the Fulfilled pile, the rest go in the Not fulfilled pile.

Record excerpt, results attached:
| Compound | Answer Label |
| --- | --- |
| CC(=O)Oc1c(C)cc(OCC(O)CNC(C)C)c(C)c1C (stereo not given) [METIPRANOLOL] | Fulfilled |
| CC(C)NCC(O)COc1cccc2[nH]c3ccccc3c12 (stereo not given) [CARAZOLOL] | Fulfilled |
| CC(C)(C)NC[C@H](O)COc1nsnc1N1CCOCC1 [TIMOLOL] | Fulfilled |
| CC(C)(C)NC[C@H](O)COc1ccccc1C1CCCC1 [PENBUTOLOL] | Not fulfilled |

Now look at this one.
# input # check: logPc < 0.8 for CC(C)NCC(O)COc1cccc2[nH]ccc12 (stereo not given) [PINDOLOL]
# output Fulfilled
